- TARGET_SYSTEM: FAD-linked sulfhydryl oxidase ALR (Homo sapiens)
- PROCEDURE_TEXT: ALR-catalysed DTT oxidation blockers – biochemical, H2O2 detection, HRP-luminol luminescence, single point, primary screen (AID 485317)
- RUN_PARAMETERS: purified ALR, active compounds read high, concentration not given here
The campaign covered roughly 290,000 compounds. About 11,000 (3.8%) were called active. For the sample, actives were picked, then their nearest neighbours and some compounds at random.
Please provide measured inhibition for the entries that follow.
Give bare numbers, in %.

COMPOUND: O=C(Nc1ccc(N2CCCCC2)cc1)c1cc(S(=O)(=O)N2CCOCC2)ccc1F
inhibition / %: 40.2
--
COMPOUND: Cc1ccc(S(=O)(=O)N2CCN(C(=O)c3cccs3)CC2)cc1
inhibition / %: -6.58
--
COMPOUND: Cc1nc(SCC(=O)NC2CCCCC2C)c(C#N)c(C)c1C (configuration not stated)
inhibition / %: -0.312

For each of the compounds below, note its inhibition.
1. C=CCSc1nnc2c(n1)-c1cccc3cccc-2c13
2. COc1ccc(C(=O)c2c3ccc([N+](=O)[O-])cc3[n+]([O-])n2CCCN)cc1
3. CCc1ccc2c(c1)C1(NN=C(c3ccccc3)S1)C(=O)N2 (configuration not stated)
4. COc1cc(/C=C/C(=O)Nc2ccc(OC)c(S(=O)(=O)N3CCOCC3)c2)ccc1OCC#N
5. COCC(=O)N=Nc1c(O)[nH]c2ccccc12
6. CCCCn1c(=S)[nH]c2cc(S(=O)(=O)N3CCCCC3)ccc21

Solution:
9.81
-50.8
33.8
-4.4
-3.07
9.62

# batch size: 8; output inhibition per entry
1. COc1ccc(C2(O)C(=O)Nc3ccccc32)cc1 (configuration not stated)
2. C[C@@H]1CN([C@@H](C)CO)C(=O)c2cc(NC(=O)C3CC3)ccc2O[C@H]1CN(C)C
3. COc1ccccc1C(=O)OCC(=O)Nc1cccc(S(=O)(=O)NC2=NCCCCC2)c1
4. O=C(NC1CCCCCC1)C1CCN(C(=O)c2ccc(Cl)cc2)CC1
5. COc1cc(Cl)c(C)cc1NC(=O)CSc1nnc(CN2CCCC2)o1
6. CN=c1scc(-c2cc(OC)ccc2OC)n1/N=C/c1c(C)[nH]c2ccccc12
7. O=C1NC(Cc2ccc(O)cc2)c2nc3ccc(Cl)cc3c(=O)n2-c2ccccc21 (configuration not stated)
8. CS(=O)(=O)Nc1ccccc1C(=O)OCC(=O)NC1CC1

Solution:
[-1.7, 1.71, 14.6, 0.152, -7.65, 15.7, 1.75, -5.36]

# per-item lookup of inhibition; items listed below
1. CCCn1c(=S)[nH]c2ccc(C(F)(F)F)cc21
2. Cc1ccc(S(=O)(=O)N2C3C=CC(C3)C2C(=O)O)cc1 (configuration not stated)

Solution:
[96.9, 89.7]

Please give inhibition, item by item, for the list that follows.
1. CCCCCCCNC(=O)C1(CC2CC(c3cccc(Br)c3)=NO2)CCN(C(=O)c2cc(OCC)c(OCC)c(OCC)c2)CC1 (configuration not stated)
2. COC(=O)c1c(-c2ccsc2)oc2ccc(-c3cc(OC)c(OC)c(OC)c3)cc12
3. Cc1ccc(S(=O)(=O)N2CCN(C)CC2)cc1

Solution:
1: -9.32; 2: -1.82; 3: -6.86
